Recorded values, source patent US20190330224A1.

Fungal ACC2 (UniProt Q00955) measurements of pIC50, listed per entry.
Sequence (Q00955 whole entry): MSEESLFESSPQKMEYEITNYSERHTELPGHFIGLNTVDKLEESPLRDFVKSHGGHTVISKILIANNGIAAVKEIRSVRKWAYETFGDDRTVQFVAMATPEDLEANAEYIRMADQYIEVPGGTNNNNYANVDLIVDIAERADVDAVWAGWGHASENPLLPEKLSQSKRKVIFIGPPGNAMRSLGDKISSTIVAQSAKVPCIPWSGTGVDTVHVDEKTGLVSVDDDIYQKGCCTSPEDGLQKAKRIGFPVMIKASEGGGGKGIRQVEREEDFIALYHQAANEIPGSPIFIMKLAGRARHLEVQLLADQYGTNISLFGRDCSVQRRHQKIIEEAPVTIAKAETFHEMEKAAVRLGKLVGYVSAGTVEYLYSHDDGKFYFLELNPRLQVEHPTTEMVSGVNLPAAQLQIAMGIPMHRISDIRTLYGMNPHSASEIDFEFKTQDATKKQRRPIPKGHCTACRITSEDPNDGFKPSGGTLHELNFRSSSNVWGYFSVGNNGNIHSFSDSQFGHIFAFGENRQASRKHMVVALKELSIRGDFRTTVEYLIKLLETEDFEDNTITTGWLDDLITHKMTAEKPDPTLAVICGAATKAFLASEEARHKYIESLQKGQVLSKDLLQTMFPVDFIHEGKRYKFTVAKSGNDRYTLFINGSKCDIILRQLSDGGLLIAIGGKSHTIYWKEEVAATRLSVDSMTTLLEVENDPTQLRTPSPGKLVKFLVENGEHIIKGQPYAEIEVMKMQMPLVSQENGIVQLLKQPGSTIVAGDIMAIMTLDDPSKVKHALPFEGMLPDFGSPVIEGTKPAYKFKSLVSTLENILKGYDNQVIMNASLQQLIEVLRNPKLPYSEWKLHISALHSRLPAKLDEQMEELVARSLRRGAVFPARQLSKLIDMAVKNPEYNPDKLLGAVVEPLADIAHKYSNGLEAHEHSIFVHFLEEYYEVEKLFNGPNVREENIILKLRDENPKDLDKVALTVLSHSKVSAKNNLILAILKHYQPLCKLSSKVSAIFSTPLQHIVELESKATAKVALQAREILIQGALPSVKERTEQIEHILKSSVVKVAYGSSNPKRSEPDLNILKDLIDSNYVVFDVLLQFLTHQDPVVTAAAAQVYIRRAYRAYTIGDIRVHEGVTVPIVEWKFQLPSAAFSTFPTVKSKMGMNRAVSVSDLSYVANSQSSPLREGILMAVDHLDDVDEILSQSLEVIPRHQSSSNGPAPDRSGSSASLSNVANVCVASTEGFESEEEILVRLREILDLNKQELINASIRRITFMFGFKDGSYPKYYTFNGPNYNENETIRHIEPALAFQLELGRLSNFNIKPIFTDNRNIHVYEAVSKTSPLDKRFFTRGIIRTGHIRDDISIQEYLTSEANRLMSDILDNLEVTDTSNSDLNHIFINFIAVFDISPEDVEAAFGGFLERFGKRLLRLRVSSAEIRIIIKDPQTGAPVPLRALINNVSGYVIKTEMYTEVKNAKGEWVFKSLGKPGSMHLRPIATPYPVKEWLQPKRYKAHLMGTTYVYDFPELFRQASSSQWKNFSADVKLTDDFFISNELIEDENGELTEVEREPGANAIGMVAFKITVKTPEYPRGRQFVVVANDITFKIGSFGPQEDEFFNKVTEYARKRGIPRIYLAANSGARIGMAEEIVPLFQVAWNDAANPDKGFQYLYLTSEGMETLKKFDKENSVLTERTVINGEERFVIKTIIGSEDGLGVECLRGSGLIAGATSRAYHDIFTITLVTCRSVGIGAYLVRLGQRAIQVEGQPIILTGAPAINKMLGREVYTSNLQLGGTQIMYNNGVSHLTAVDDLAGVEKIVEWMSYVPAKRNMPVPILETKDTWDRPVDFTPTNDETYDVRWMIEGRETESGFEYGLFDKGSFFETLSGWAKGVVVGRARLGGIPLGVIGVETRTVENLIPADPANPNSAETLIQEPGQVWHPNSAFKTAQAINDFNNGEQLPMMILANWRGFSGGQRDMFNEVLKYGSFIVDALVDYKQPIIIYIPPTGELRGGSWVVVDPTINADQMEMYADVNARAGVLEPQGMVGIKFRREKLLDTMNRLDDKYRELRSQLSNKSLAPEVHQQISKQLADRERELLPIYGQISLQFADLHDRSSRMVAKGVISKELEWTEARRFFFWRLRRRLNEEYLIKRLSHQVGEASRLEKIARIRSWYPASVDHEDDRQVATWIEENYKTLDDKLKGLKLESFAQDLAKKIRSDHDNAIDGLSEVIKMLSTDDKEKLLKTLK
pIC50: −log10 of the molar value.

COMPOUND | ASSAYED_TARGET | pIC50
CCN1CCCC(n2c(=O)c3c(C)c(-n4nccn4)sc3n(C[C@H](OCCOC)c3cc(F)ccc3OC)c2=O)C1=O (stereo partly shown) | Fungal ACC2 (UniProt Q00955) | 7.00 to 8.00
COc1ccc(F)cc1[C@H](COc1nc2sc(-n3nccn3)c(C)c2c(=O)n1[C@H]1CCN(C)C1=O)OCCCO | Fungal ACC2 (UniProt Q00955) | 6.00 to 7.00
COCCO[C@@H](Cn1c(=O)n(CCN2CCCC2=O)c(=O)c2c(C)c(-n3nccn3)sc21)c1cc(F)ccc1OC | Fungal ACC2 (UniProt Q00955) | 8.70 to 9.15
COc1ccc(F)cc1[C@H](Cn1c(=O)n([C@@H]2CCNC2=O)c(=O)c2c(C)c(-n3nccn3)sc21)O[C@H]1CC[C@@H](O)CC1 | Fungal ACC2 (UniProt Q00955) | 8.70 to 9.15
COCCO[C@@H](COc1nc2sc(-n3nccn3)c(C)c2c(=O)n1[C@@H]1CCN(C(=O)C(C)C)C1)c1cc(F)ccc1OC | Fungal ACC2 (UniProt Q00955) | 7.00 to 8.00
COc1ccc(F)cc1[C@H](Cn1c(=O)n([C@H]2CCCN(C)C2=O)c(=O)c2c(C)c(-n3nccn3)sc21)OCCC#N | Fungal ACC2 (UniProt Q00955) | 8.70 to 9.15
COc1ccc(F)cc1[C@H](Cn1c(=O)n([C@H]2CCNC2=O)c(=O)c2c(C)c(-n3nccn3)sc21)OCCC#N | Fungal ACC2 (UniProt Q00955) | 8.70 to 9.15
COCCO[C@@H](Cn1c(=O)n([C@H]2CCN(C(=O)C(C)C)C2)c(=O)c2c(C)c(-n3nccn3)sc21)c1cc(F)ccc1OC | Fungal ACC2 (UniProt Q00955) | 8.00 to 8.70

query: Quick one: pIC50 of COc1ccc(F)cc1[C@H](COc1nc2sc(-n3nccn3)c(C)c2c(=O)n1[C@@H]1CC(=O)N(C)C1)OCCO ?
result: 7.00 to 8.00

query: Param item: COc1ccccc1[C@H](Cn1c(=O)n([C@@H]2CCCN(C)C2=O)c(=O)c2c(C)c(-c3ncco3)sc21)OCCO
result: 8.00 to 8.70

---

Property: IC50; scope: individual molecules
ASSAYED_TARGET: Human ACC2 (Homo sapiens, UniProt O00763)
Sequence (O00763 whole entry): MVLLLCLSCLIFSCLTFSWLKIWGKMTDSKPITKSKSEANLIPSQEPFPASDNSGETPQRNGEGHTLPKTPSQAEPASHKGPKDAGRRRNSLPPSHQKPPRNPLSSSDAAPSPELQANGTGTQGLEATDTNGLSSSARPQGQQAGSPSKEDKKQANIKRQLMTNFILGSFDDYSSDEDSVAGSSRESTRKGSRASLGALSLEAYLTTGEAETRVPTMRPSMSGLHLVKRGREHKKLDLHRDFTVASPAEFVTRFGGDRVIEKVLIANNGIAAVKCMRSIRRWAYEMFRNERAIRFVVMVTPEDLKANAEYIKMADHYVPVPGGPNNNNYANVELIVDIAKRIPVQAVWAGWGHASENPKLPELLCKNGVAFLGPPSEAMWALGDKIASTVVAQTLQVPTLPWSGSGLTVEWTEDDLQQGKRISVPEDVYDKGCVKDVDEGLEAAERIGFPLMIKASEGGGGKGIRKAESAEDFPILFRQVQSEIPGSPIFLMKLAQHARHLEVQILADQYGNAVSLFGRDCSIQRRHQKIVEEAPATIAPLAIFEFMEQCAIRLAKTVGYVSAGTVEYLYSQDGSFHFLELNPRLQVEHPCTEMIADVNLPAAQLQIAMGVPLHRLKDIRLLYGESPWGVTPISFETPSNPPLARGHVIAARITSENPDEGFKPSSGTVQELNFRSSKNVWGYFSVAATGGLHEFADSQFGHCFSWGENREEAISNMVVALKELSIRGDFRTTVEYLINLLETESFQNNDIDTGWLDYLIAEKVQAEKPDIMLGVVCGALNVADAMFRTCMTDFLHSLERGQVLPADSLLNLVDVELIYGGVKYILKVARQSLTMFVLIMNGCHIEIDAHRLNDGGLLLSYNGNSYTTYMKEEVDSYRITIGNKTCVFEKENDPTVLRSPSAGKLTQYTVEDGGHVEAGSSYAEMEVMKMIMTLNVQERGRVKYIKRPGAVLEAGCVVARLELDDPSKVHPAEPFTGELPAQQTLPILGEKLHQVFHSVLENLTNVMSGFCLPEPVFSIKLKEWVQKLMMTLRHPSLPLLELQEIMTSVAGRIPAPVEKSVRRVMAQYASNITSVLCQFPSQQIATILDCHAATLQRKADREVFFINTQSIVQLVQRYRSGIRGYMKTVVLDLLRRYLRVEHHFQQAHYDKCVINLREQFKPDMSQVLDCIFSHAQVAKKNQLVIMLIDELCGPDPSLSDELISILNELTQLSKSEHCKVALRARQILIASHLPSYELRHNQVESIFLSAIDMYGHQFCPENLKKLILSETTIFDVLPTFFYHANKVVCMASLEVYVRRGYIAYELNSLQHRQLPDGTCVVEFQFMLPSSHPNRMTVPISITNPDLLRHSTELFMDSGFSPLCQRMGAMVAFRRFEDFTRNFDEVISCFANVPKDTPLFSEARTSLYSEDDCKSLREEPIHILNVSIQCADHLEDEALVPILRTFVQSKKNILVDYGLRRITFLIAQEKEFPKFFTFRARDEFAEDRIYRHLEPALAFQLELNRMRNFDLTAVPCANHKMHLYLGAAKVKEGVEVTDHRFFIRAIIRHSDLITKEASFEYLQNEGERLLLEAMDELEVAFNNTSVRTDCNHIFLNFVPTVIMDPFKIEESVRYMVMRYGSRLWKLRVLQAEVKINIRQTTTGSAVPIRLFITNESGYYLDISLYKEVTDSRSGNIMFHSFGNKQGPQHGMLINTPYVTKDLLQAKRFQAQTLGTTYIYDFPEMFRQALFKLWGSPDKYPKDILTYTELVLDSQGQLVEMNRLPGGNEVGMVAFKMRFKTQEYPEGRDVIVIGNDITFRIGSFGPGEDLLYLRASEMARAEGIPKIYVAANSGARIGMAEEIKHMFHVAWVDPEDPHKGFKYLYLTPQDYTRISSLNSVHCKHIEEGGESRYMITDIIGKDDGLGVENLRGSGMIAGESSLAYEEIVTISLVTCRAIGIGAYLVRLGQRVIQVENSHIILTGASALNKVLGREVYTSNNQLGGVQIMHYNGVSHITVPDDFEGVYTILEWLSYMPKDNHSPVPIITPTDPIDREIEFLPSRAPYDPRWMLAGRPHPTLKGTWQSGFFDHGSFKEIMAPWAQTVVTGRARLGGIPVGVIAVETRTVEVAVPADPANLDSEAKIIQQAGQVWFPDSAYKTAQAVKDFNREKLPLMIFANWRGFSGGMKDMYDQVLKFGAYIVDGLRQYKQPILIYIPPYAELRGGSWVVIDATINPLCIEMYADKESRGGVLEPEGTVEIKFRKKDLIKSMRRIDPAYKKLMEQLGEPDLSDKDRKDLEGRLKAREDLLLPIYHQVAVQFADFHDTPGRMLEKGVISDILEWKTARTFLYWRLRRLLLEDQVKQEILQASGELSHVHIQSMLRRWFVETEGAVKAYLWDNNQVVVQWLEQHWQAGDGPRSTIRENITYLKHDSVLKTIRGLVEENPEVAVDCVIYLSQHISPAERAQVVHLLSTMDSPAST

Below: 5 molecules and their reported IC50.
MOLECULE | VALUE_OBSERVED
COc1ccc(F)cc1[C@H](Cn1c(=O)n([C@@H]2CCCN(C)C2=O)c(=O)c2c(C)c(-n3nccn3)sc21)OCCC#N | 2 to 10 nM
CCN1CCC(n2c(=O)c3c(C)c(-n4nccn4)sc3n(C[C@H](OCCO)c3cc(F)ccc3OC)c2=O)C1=O (stereo partly drawn) | 10 to 100 nM
COc1ccccc1[C@H](Cn1c(=O)n([C@H]2CCCNC2=O)c(=O)c2c(C)c(-c3ncco3)sc21)OCCO | 10 to 100 nM
COc1ccc(F)cc1[C@@H](O)Cn1c(=O)n([C@H]2CCN(C)C2=O)c(=O)c2c(C)c(-n3nccn3)sc21 | 10 to 100 nM
COCCO[C@@H](Cn1c(=O)n([C@@H]2CCCN(C)C2=O)c(=O)c2c(C)c(-n3cccn3)sc21)c1cc(F)ccc1OC | 100 to 1000 nM

Now let's try a different one.
query: Enter reported IC50 observed with Human ACC2 (Homo sapiens, UniProt O00763) for COCCO[C@@H](Cn1c(=O)n([C@@H]2CCCNC2=O)c(=O)c2c(C)c(-n3cccn3)sc21)c1cc(F)ccc1OC
result: 100 to 1000 nM

---

Fungal ACC2 (UniProt Q00955) measurements of pIC50, listed per entry.
pIC50: −log10 of the molar value.

COMPOUND | MEASURE_NAME | VALUE_OBSERVED
COc1ccc(F)cc1[C@H](Cn1c(=O)n([C@H]2CCN(C)C2=O)c(=O)c2c(C)c(-n3nccn3)sc21)OCCO | pIC50 | 8.70 to 9.15
COc1ccc(F)cc1[C@H](Cn1c(=O)n([C@H]2CCN(C)C2=O)c(=O)c2c(C)c(-c3ncco3)sc21)O[C@H]1CC[C@@H](O)CC1 | pIC50 | 8.70 to 9.15

query: Quick one: pIC50 of COc1ccc(F)cc1[C@H](Cn1c(=O)n([C@H]2CCNC2=O)c(=O)c2c(C)c(-n3nccn3)sc21)O[C@H]1CC[C@@H](O)CC1 ?
result: 8.70 to 9.15

query: Param item: COc1ccccc1[C@H](Cn1c(=O)n(C2CCN(C)C2=O)c(=O)c2c(C)c(-c3ncco3)sc21)OCCO (stereo partly shown)
result: 8.00 to 8.70

---

pIC50: −log10 of the molar value.
Human ACC2 (Homo sapiens, UniProt O00763) measurements of pIC50, listed per entry.

Below: 8 compounds and their reported pIC50.
COMPOUND | MEASURE_NAME | VALUE_OBSERVED
COc1ccc(F)cc1[C@H](Cn1c(=O)n([C@H]2CCN(C(=O)C(C)C)C2)c(=O)c2c(C)c(-n3nccn3)sc21)OCCO | pIC50 | 7.00 to 8.00
COc1ccc(F)cc1[C@H](COc1nc2sc(-n3nccn3)c(C)c2c(=O)n1[C@H]1CNC(=O)C1)OCCO | pIC50 | < 6.00
COc1ccc(F)cc1[C@H](Cn1c(=O)n([C@@H]2CCN(C)C2=O)c(=O)c2c(C)c(-n3nccn3)sc21)OCCCO | pIC50 | 8.00 to 8.70
COc1ccc(F)cc1[C@H](Cn1c(=O)n([C@]2(C)CCC(=O)N(C)C2)c(=O)c2c(C)c(-n3nccn3)sc21)OCCO | pIC50 | 8.00 to 8.70
COc1ccc(F)cc1[C@H](Cn1c(=O)n([C@H]2CC(=O)N(C)C2)c(=O)c2c(C)c(-n3nccn3)sc21)OCCO | pIC50 | 8.00 to 8.70
COc1ccc(F)cc1[C@H](Cn1c(=O)n([C@@H]2CCN(C)C2=O)c(=O)c2c(C)c(-n3nccn3)sc21)OCCC(=O)O | pIC50 | 7.00 to 8.00
COCCO[C@@H](Cn1c(=O)n([C@H]2CC(=O)N(C)C2)c(=O)c2c(C)c(-n3nccn3)sc21)c1cc(F)ccc1OC | pIC50 | 8.00 to 8.70
COCCO[C@@H](Cn1c(=O)n([C@H]2CCCNC2=O)c(=O)c2c(C)c(-n3cccn3)sc21)c1cc(F)ccc1OC | pIC50 | 7.00 to 8.00

query: Quick one: pIC50 of COCCO[C@@H](Cn1c(=O)n([C@@]2(C)CCNC2=O)c(=O)c2c(C)c(-n3nccn3)sc21)c1cc(F)ccc1OC ?
result: < 6.00

query: Param item: CCN1CCC(n2c(=O)c3c(C)c(-n4nccn4)sc3n(C[C@H](OCCOC)c3cc(F)ccc3OC)c2=O)C1=O (stereo partly shown)
result: 7.00 to 8.00

query: Param item: COc1ccc(F)cc1[C@H](Cn1c(=O)n(C2CCN(C)C2=O)c(=O)c2c(C)c(-n3nccn3)sc21)OC1CCOCC1 (stereo partly shown)
result: 8.00 to 8.70

query: Param item: CCN1CCCC(n2c(=O)c3c(C)c(-n4nccn4)sc3n(C[C@H](OC3CCOCC3)c3cc(F)ccc3OC)c2=O)C1=O (stereo partly shown)
result: 8.00 to 8.70

query: Param item: COc1ccc(F)cc1[C@H](Cn1c(=O)n([C@H]2CCNC2=O)c(=O)c2c(C)c(-c3ncco3)sc21)OCCO
result: 7.00 to 8.00

---

ASSAYED_TARGET: UniProt O00763
ASSAY_OVERVIEW: In vitro ACC2 inhibition assay (ADP-Glo), human ACC2
Format: biochemical
MEASUREMENT_SETUP: 5 nM ACC2, 20 μM ATP, 20 μM acetyl-CoA
pIC50: −log10 of the molar value.
MEASURE_NAME: pIC50

Below: 10 molecules and their reported pIC50.
MOLECULE | VALUE_OBSERVED
COc1ccccc1[C@H](Cn1c(=O)n(C2CCNC2=O)c(=O)c2c(C)c(-c3ncco3)sc21)OCCO (stereo partly shown) | 7.00 to 8.00
COCCO[C@@H](Cn1c(=O)n([C@@H]2CCN(C)C2=O)c(=O)c2c(C)c(-n3nccn3)sc21)c1cc(F)ccc1OC | 7.00 to 8.00
COc1ccc(F)cc1[C@H](Cn1c(=O)n([C@H]2CCN(C)C2=O)c(=O)c2c(C)c(-n3nccn3)sc21)OCCO | 8.00 to 8.70
COc1ccc(F)cc1[C@H](Cn1c(=O)n(C2CCN(C)C2=O)c(=O)c2c(C)c(-n3nccn3)sc21)OCCO (stereo partly shown) | 7.00 to 8.00
COCCO[C@@H](Cn1c(=O)n([C@]2(C)CCC(=O)NC2)c(=O)c2c(C)c(-n3nccn3)sc21)c1cc(F)ccc1OC | 7.00 to 8.00
COc1ccc(F)cc1[C@H](Cn1c(=O)n([C@@H]2CC(=O)N(C)C2)c(=O)c2c(C)c(-n3nccn3)sc21)OCCO | 8.00 to 8.70
COCCO[C@@H](Cn1c(=O)n([C@@H]2CCCNC2=O)c(=O)c2c(C)c(-n3nccn3)sc21)c1cc(F)ccc1OC | 7.00 to 8.00
COc1ccccc1[C@H](Cn1c(=O)n([C@@H]2CCCN(C)C2=O)c(=O)c2c(C)c(-c3ncco3)sc21)OCCO | 7.00 to 8.00
COc1ccc(F)cc1[C@H](Cn1c(=O)n([C@@H]2CCN(C)C2=O)c(=O)c2c(C)c(-n3nccn3)sc21)O[C@H]1CC[C@@H](O)CC1 | 8.00 to 8.70
COCCO[C@@H](Cn1c(=O)n([C@@H]2CCN(C)C2=O)c(=O)c2c(C)c(-n3nccn3)sc21)c1cc(F)ccc1OCC#N | < 6.00

query: Quick one: pIC50 of COCCO[C@@H](Cn1c(=O)n([C@H]2CCN(C)C2=O)c(=O)c2c(C)c(-n3nccn3)sc21)c1cc(F)ccc1O ?
result: 6.00 to 7.00

query: Param item: COc1ccc(F)cc1[C@H](Cn1c(=O)n([C@@H]2CCNC2=O)c(=O)c2c(C)c(-c3ncco3)sc21)OCCO
result: 7.00 to 8.00

query: Param item: COCCO[C@@H](Cn1c(=O)n([C@@H]2CCNC2=O)c(=O)c2c(C)c(-n3cccn3)sc21)c1cc(F)ccc1OC
result: 7.00 to 8.00
